Values from patent US12673944B2

Tested on: GM1 production in Jurkat cells
assay name: cells
Format: cell-based
settings: Homo sapiens, Jurkat, 72 h
endpoint name: IC50
Kindly write the number and append the unit.

molecule: O=C(NC1CCSc2cc(-c3cc(Cl)ccc3Cl)ccc21)O[C@@H]1CN2CCC1CC2 (stereo partly shown)
assayed system: GM1 production in Jurkat cells
endpoint name: IC50
experimental result: 26.3 nM

State, for GM1 production in Jurkat cells, measured IC50 of the molecule listed here: Cc1cncc(-c2ccc3c(c2)OCC(C)(C)C3NC(=O)O[C@@H]2CN3CCC2CC3)c1 (stereo partly shown)
2.8 nM

State, for GM1 production in Jurkat cells, measured IC50 of the molecule listed here: O=C(NC1CCOc2cc(-c3cccc4cc[nH]c34)ccc21)O[C@@H]1CN2CCC1CC2 (stereo partly shown)
10.5 nM

State, for GM1 production in Jurkat cells, measured IC50 of the molecule listed here: CCOc1c(C)cc(-c2ccc3c(c2)OCC(C)(C)C3NC(=O)O[C@@H]2CN3CCC2CC3)cc1C (stereo partly shown)
0.1 nM

State, for GM1 production in Jurkat cells, measured IC50 of the molecule listed here: CC(C)Oc1cc(F)cc(-c2ccc3c(c2)OCC(C)(C)C3NC(=O)O[C@@H]2CN3CCC2CC3)c1 (stereo partly shown)
2.73 nM

State, for GM1 production in Jurkat cells, measured IC50 of the molecule listed here: Cc1ccc(-c2ccc3c(c2)OCC(C)(C)C3NC(=O)O[C@@H]2CN3CCC2CC3)cc1C#N (stereo partly shown)
3.63 nM

State, for GM1 production in Jurkat cells, measured IC50 of the molecule listed here: COc1ncc(-c2ccc3c(c2)OCCC3NC(=O)O[C@@H]2CN3CCC2CC3)cc1Cl (stereo partly shown)
44.2 nM

State, for GM1 production in Jurkat cells, measured IC50 of the molecule listed here: COc1ccc(-c2cc3c(cc2OC)C(NC(=O)O[C@@H]2CN4CCC2CC4)C(C)(C)CO3)c(F)c1 (stereo partly shown)
10 nM

State, for GM1 production in Jurkat cells, measured IC50 of the molecule listed here: O=C(NC1CCOc2ccc(-c3cccc(F)c3)cc21)O[C@@H]1CN2CCC1CC2 (stereo partly shown)
181 nM

State, for GM1 production in Jurkat cells, measured IC50 of the molecule listed here: CC(C)Oc1ccc(-c2ccc3c(c2)OCC(C)(C)C3NC(=O)O[C@@H]2CN3CCC2CC3)cn1 (stereo partly shown)
1 nM

State, for GM1 production in Jurkat cells, measured IC50 of the molecule listed here: CC1(C)COc2cc(-c3cnn(Cc4ccccc4)c3)ccc2C1NC(=O)O[C@@H]1CN2CCC1CC2 (stereo partly shown)
3.42 nM

State, for GM1 production in Jurkat cells, measured IC50 of the molecule listed here: CSc1cccc(-c2ccc3c(c2)C(NC(=O)O[C@@H]2CN4CCC2CC4)CCO3)c1 (stereo partly shown)
525 nM

State, for GM1 production in Jurkat cells, measured IC50 of the molecule listed here: CC1(C)COc2cc(-c3cnc(C4CC4)nc3)ccc2C1NC(=O)O[C@@H]1CN2CCC1CC2 (stereo partly shown)
25.6 nM

State, for GM1 production in Jurkat cells, measured IC50 of the molecule listed here: CC1(NC(=O)O[C@@H]2CN3CCC2CC3)CCOc2cc(-c3cccc(C(F)(F)F)c3)ccc21 (stereo partly shown)
5.4 nM

State, for GM1 production in Jurkat cells, measured IC50 of the molecule listed here: CC1(NC(=O)O[C@@H]2CN3CCC2CC3)CCOc2cc(-c3cccc(Cl)c3)ccc21 (stereo partly shown)
5.6 nM

State, for GM1 production in Jurkat cells, measured IC50 of the molecule listed here: O=C(NC1CCOc2cc(-c3cccc(S(=O)(=O)N4CCCC4)c3)ccc21)O[C@@H]1CN2CCC1CC2 (stereo partly shown)
16.5 nM
